Listed below: pKd values for each entry.
SYSTEM UNDER TEST: AAV8 (adeno-associated virus serotype 8)
ASSAY PROTOCOL: SPR, AAV on CM5 chip
pKd: −log10 of the molar value.
MEASURED QUANTITY: pKd

A4-C2 (VHH) VQLQESGGGLVQPGGSLRLSCAASGSAFSINTMGWYRQAPGKQRELVASVTPGGSTNYADSVKGRFTISRDNAKNTIYLQMNSLRPEDTAVYYCHLDEVRESSWTTSNLWGQGTQVTVSSGGGGSGGGGSGGGGSVQLQESGGGLVQPGGSLRLSCAASGSAFSINTMGWYRQAPGKQRELVASVTPGGSTNYADSVKGRFTISRDNAKNTIYLQMNSLRPEDTAVYYCHLDEVRESSWTTSNLWGQGTQVTVSSGGGGSGGGGSGGGGSVQLQESGGGLVQPGGSLRLSCAASGSAFSINTMGWYRQAPGKQRELVASVTPGGSTNYADSVKGRFTISRDNAKNTIYLQMNSLRPEDTAVYYCHLDEVRESSWTTSNLWGQGTQVTVSS: 9.44
A4-B1 (VHH) VQLQESGGGLVQPGGSLRLSCAASGSIFSINLMGWYRQAPGKQRELVATITRGGNTNYAGSVKGRFTISRDNAKNTVYLQMNSLRPEDTAVYYCHVDEVRQSSWTTSNLWGQGTQVTVSSGGGGSGGGGSGGGGSVQLQESGGGLVQPGGSLRLSCAASGSIFSINLMGWYRQAPGKQRELVATITRGGNTNYAGSVKGRFTISRDNAKNTVYLQMNSLRPEDTAVYYCHVDEVRQSSWTTSNLWGQGTQVTVSS: 8.79
